Data credit: ChEMBL document CHEMBL5579901

- tgt: Cyclin-dependent kinases regulatory subunit 1/S-phase kinase-associated protein 2 (Homo sapiens) (UniProt P61024+Q13309)
- Sequence (P61024 2-79 limits assumed): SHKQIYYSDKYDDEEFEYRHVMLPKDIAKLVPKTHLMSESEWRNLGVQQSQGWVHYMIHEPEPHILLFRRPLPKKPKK
- Sequence (Q13309 whole entry partner): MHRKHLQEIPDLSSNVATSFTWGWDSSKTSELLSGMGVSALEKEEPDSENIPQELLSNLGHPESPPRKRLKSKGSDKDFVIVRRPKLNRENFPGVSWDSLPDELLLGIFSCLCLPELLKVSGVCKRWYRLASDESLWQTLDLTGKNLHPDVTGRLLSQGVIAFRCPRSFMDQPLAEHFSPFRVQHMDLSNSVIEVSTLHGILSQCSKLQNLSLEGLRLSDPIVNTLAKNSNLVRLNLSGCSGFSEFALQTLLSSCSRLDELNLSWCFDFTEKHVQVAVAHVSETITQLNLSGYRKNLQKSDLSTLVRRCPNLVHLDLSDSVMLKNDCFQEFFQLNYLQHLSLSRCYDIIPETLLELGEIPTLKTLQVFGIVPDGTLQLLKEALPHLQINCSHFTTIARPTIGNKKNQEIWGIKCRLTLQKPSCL
- protocol_details: Inhibition of GST-tagged SKP2 (unknown origin) binding to His6-tagged CKS1 (unknown origin) at 50 uM preincubated with SKP2 for 10 mins followed by CKS1 addition for 20 mins and measured after by HTRF method relative to control
- Format: protein assay
- recorded_conditions: time 30.0 min
Hi there, I'd appreciate the recorded inhibition for every entry that follows.
State the answer as a number, implicitly in %.

The reported inhibition of the compound COc1cc(OC)c(-c2cc(C)nc3nc(SCc4ccc(F)cc4)nn23)c(OC)c1 was 24

inhibition recorded for this compound, COc1ccc(CSc2nc3nc(C)cc(-c4c(OC)cc(OC)cc4OC)n3n2)cc1 , is 11.5

The reported value for COc1cc(OC)c(-c2cc(C)nc3nc(SCC4CCCCC4)nn23)c(OC)c1 in terms of inhibition is 60

# inhibition of CCCSc1nc2nc(C)cc(-c3c(OC)cc(OC)cc3OC)n2n1 = 24.5

The recorded inhibition for entry Cc1cc(Cl)n2nc(SCc3ccc(Br)cc3)nc2n1 equals 22

Reported inhibition of Cc1cc(-c2cccc(C(=O)O)c2)n2nc(SCc3ccc(Br)cc3)nc2n1 : 17.9

For reference, reported inhibition for C=CCSc1nc2nc(C)cc(-c3c(OC)cc(OC)cc3OC)n2n1 stands at 2.51

Value of inhibition reported for the compound COc1cccc(OC)c1-c1cc(C)nc2nc(SCc3ccc(Br)cc3)nn12 is 37

Field inhibition (entry COc1cc(OC)c(-c2cc(C)nc3nc(SCc4ccccc4Br)nn23)c(OC)c1 ) reads 43

Noted for COc1cc(OC)c(-c2cc(C)nc3nc(SCc4ccc(Cl)cc4)nn23)c(OC)c1 : its inhibition reads 9.13

Noted for COc1cc(-c2cc(C)nc3nc(SCc4ccc(Br)cc4)nn23)cc(OC)c1OC : its inhibition reads 58.8
